Attribution: paper PMC2688778

- SYSTEM NAME: T1, RecE564 S617A (Escherichia coli K12, UniProt P15032 564-866, S617A)
- T1 sequence: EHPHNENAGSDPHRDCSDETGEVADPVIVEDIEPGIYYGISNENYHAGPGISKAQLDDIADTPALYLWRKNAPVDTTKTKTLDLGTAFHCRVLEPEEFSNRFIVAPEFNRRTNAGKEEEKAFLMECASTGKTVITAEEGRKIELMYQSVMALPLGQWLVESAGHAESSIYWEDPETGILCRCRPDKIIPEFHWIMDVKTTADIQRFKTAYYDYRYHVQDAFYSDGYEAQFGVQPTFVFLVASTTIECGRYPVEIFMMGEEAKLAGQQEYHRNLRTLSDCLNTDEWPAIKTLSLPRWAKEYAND
- ASSAY METHOD TEXT: fluorescence anisotropy
ASSAY METRIC: Kd (nM)

BINDER	NUMBER
F25 (dsDNA) DNA 1: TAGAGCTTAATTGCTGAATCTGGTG DNA 2: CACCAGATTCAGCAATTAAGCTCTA	150
